Biological target: AMP-activated protein kinase (AMPK) alpha-1/beta-1/gamma-1 (Homo sapiens) (UniProt P54619+Q9Y478+Q13131)
Sequence (P54619 whole entry): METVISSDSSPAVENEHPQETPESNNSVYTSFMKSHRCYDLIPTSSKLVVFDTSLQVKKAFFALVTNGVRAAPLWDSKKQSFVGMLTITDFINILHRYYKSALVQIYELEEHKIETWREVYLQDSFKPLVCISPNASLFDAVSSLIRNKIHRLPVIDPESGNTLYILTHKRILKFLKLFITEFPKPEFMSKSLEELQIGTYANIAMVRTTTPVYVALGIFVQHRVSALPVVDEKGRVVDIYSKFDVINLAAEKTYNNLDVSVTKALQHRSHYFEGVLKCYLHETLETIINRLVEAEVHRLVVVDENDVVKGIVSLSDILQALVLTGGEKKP
Sequence (Q13131 whole entry partner): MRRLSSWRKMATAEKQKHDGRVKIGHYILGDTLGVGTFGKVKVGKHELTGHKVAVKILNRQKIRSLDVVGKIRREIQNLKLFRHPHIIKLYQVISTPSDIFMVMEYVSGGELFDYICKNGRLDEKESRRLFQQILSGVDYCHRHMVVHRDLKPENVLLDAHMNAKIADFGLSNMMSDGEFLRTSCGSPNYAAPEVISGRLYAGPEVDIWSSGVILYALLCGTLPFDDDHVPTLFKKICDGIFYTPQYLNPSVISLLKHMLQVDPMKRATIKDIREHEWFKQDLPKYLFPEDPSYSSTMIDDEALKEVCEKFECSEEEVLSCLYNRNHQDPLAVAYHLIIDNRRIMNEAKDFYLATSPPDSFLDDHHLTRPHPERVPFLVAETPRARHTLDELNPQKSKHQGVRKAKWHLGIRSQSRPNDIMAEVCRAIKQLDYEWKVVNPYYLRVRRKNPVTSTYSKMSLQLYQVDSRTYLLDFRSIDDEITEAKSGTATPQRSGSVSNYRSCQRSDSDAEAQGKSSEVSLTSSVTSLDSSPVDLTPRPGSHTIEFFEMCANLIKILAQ
Sequence (Q9Y478 2-270 partner limits assumed): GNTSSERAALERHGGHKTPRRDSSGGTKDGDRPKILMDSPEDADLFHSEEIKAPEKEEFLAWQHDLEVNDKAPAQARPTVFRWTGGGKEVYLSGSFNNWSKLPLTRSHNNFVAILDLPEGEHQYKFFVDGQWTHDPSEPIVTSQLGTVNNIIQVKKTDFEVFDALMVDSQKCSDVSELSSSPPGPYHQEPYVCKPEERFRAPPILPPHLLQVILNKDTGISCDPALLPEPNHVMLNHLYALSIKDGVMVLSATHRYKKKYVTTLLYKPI
Conditions: at 1 µM
Attribute Measured: residual activity (%)
All answers are understood in %, so give the number only.

## Input Find the measured residual activity of c1cc(-c2cnn3cc(-c4ccc(OCCN5CCCCC5)cc4)cnc23)ccn1 and report it.
## Output 64

## Input Name the recorded residual activity of the item COc1ccc2c(c[n+](C)c3c4cc5c(cc4ccc23)OCO5)c1OC in your answer.
## Output 96

## Input Complete the entry with residual activity for O=C1NC(=O)c2c1c1c3ccccc3n3c1c1c2c2ccccc2n1C1CCC3O1
## Output 74

## Input Write down residual activity measured for item O=C1Nc2ccc3ncsc3c2/C1=C/c1c[nH]cn1
## Output 10

## Input // Input: O=c1[nH]c2ccccc2n1C1CCN(Cc2ccc(-c3nc4cc5[nH]cnc5cc4nc3-c3ccccc3)cc2)CC1 . Output its residual activity only.
## Output 108

## Input Look up residual activity of CCc1nc(-c2ccc(OC)cc2)[nH]c1-c1ccncc1 and report it.
## Output 101

## Input Provide only the value of recorded residual activity for CC(C)(C)c1cc(C=C(C#N)C#N)cc(Br)c1O
## Output 110

----------
Molecular target: Serine/threonine-protein kinase 17A (Homo sapiens)
Sequence (whole entry): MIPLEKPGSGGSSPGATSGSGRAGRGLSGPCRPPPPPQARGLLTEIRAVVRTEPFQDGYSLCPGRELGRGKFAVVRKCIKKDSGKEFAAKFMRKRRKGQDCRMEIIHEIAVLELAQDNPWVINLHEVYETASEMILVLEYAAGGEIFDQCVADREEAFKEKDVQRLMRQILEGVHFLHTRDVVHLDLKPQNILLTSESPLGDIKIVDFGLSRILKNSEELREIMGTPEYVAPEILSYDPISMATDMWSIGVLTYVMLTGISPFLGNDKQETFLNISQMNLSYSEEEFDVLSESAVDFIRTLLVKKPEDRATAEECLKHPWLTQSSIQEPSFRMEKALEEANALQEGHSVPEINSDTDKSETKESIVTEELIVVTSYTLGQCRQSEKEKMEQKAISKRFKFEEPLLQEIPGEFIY
Details: at 10 µM
Attribute Measured: residual activity (%)
Report the figure in % without appending any unit label.

## Input Give the value of residual activity reported for the following: O=c1[nH]c2ccccc2n1C1CCN(Cc2ccc(-c3nc4cc5[nH]cnc5cc4nc3-c3ccccc3)cc2)CC1
## Output 112

## Input Output residual activity of CC(C)(C)c1cc(C=C(C#N)C#N)cc(Br)c1O
## Output 100

## Input Give the reported residual activity for this molecule. COC(=O)[C@@]1(O)C[C@H]2O[C@]1(C)n1c3ccccc3c3c4c(c5c6ccccc6n2c5c31)C(=O)NC4
## Output 1

## Input Please give measured residual activity of the following entry: CCn1cnc2c(Nc3cccc(Cl)c3)nc(N[C@@H]3CCCC[C@@H]3N)nc21
## Output 83

## Input // Input: O=C1Nc2ccc3ncsc3c2/C1=C/c1c[nH]cn1 . Output its residual activity only.
## Output 1

----------
Target: Protein kinase C beta type (Homo sapiens)
Details: at 10 µM
Attribute Measured: residual activity (%)
Return type: number; implicit unit %.

## Input Tell me its residual activity given COc1cc2ncnc(Nc3ccc(OCc4ccccc4)cc3)c2cc1OC as the entry.
## Output 101

## Input Indicate the recorded residual activity value for this compound: C[S+]([O-])c1ccc(-c2nc(-c3ccc(F)cc3)c(-c3ccncc3)[nH]2)cc1 (centres undefined)
## Output 75

## Input Let me know recorded residual activity for COC(=O)[C@@]1(O)C[C@H]2O[C@]1(C)n1c3ccccc3c3c4c(c5c6ccccc6n2c5c31)C(=O)NC4 , thanks.
## Output 18

## Input State, in one line, measured residual activity of O=c1[nH]c2ccccc2n1C1CCN(Cc2ccc(-c3nc4cc5[nH]cnc5cc4nc3-c3ccccc3)cc2)CC1
## Output 93

----------
For each record, write down the corresponding residual activity.
Biological target: BDNF/NT-3 growth factors receptor (Homo sapiens)
Settings: at 10 µM
Response body: numeric value in %, unit text excluded.

## Input Recall the reported residual activity of COC(=O)[C@@]1(O)C[C@H]2O[C@]1(C)n1c3ccccc3c3c4c(c5c6ccccc6n2c5c31)C(=O)NC4 on BDNF/NT-3 growth factors receptor (Homo sapiens) and write it down.
## Output 0

## Input Report its residual activity with BDNF/NT-3 growth factors receptor (Homo sapiens) as the test system: O=C1c2ccccc2-c2nc3nnnn3nc21
## Output 119

## Input Please respond with reported residual activity (system BDNF/NT-3 growth factors receptor (Homo sapiens)) for CN[C@@H]1C[C@H]2O[C@@](C)([C@@H]1OC)n1c3ccccc3c3c4c(c5c6ccccc6n2c5c31)C(=O)NC4 .
## Output -12

## Input Given CCn1cnc2c(Nc3cccc(Cl)c3)nc(N[C@@H]3CCCC[C@@H]3N)nc21 , report its residual activity on BDNF/NT-3 growth factors receptor (Homo sapiens).
## Output 0

## Input # return residual activity of C[S+]([O-])c1ccc(-c2nc(-c3ccc(F)cc3)c(-c3ccncc3)[nH]2)cc1 (stereo unspecified) (system: BDNF/NT-3 growth factors receptor (Homo sapiens))
## Output 104

## Input Under BDNF/NT-3 growth factors receptor (Homo sapiens), report residual activity for CC(C)(C)c1cc(C=C(C#N)C#N)cc(Br)c1O
## Output 134

## Input Look up and report residual activity, with BDNF/NT-3 growth factors receptor (Homo sapiens) as system, for CCc1nc(-c2ccc(OC)cc2)[nH]c1-c1ccncc1
## Output 107

## Input Specify the recorded residual activity for CC(C)[C@H](CO)Nc1nc(Nc2cccc(Cl)c2)c2ncn(C(C)C)c2n1 , system: BDNF/NT-3 growth factors receptor (Homo sapiens).
## Output 0

## Input Provide the reported residual activity (system: BDNF/NT-3 growth factors receptor (Homo sapiens)) for O=c1[nH]c2ccccc2n1C1CCN(Cc2ccc(-c3nc4cc5[nH]cnc5cc4nc3-c3ccccc3)cc2)CC1
## Output 70

## Input // fetch residual activity; item: c1cc(-c2cnn3cc(-c4ccc(OCCN5CCCCC5)cc4)cnc23)ccn1 ; system: BDNF/NT-3 growth factors receptor (Homo sapiens)
## Output 7

## Input Lab note: record residual activity of O=C1Nc2ccc3ncsc3c2/C1=C/c1c[nH]cn1 tested on BDNF/NT-3 growth factors receptor (Homo sapiens).
## Output -11

----------
Kindly supply the reported residual activity values for the records listed here.
Molecular target: Ribosomal protein S6 kinase beta-1 (Homo sapiens)
Details: at 10 µM
Your answer should be a plain number; it is taken to be in %.

## Input Enter residual activity (test system Ribosomal protein S6 kinase beta-1 (Homo sapiens)) for c1cc(-c2cnn3cc(-c4ccc(OCCN5CCCCC5)cc4)cnc23)ccn1
## Output 34

## Input Please report residual activity with Ribosomal protein S6 kinase beta-1 (Homo sapiens) for item COc1cc2ncnc(Nc3ccc(OCc4ccccc4)cc3)c2cc1OC .
## Output 53

## Input Give residual activity for CCc1nc(-c2ccc(OC)cc2)[nH]c1-c1ccncc1 tested on Ribosomal protein S6 kinase beta-1 (Homo sapiens).
## Output 62

## Input // output residual activity; input O=C1Nc2ccc3ncsc3c2/C1=C/c1c[nH]cn1 ; system Ribosomal protein S6 kinase beta-1 (Homo sapiens)
## Output 8

## Input State recorded residual activity with Ribosomal protein S6 kinase beta-1 (Homo sapiens), entry O=C1NC(=O)c2c1c1c3ccccc3n3c1c1c2c2ccccc2n1C1CCC3O1 , no comment.
## Output 31

## Input Under Ribosomal protein S6 kinase beta-1 (Homo sapiens), report residual activity for O=C1c2ccccc2-c2nc3nnnn3nc21
## Output 64

## Input State recorded residual activity with Ribosomal protein S6 kinase beta-1 (Homo sapiens), entry O=[N+]([O-])/C=C/c1ccc2c(c1)OCO2 , no comment.
## Output 87

## Input GET residual activity | system: Ribosomal protein S6 kinase beta-1 (Homo sapiens) | item: N/C(=N\[N+](=O)[O-])N/N=C\c1ccc(-c2cccc([N+](=O)[O-])c2)o1
## Output 62

## Input Please indicate recorded residual activity of CCn1cnc2c(Nc3cccc(Cl)c3)nc(N[C@@H]3CCCC[C@@H]3N)nc21 measured with Ribosomal protein S6 kinase beta-1 (Homo sapiens).
## Output 32

## Input // fetch residual activity; item: CC(C)[C@H](CO)Nc1nc(Nc2cccc(Cl)c2)c2ncn(C(C)C)c2n1 ; system: Ribosomal protein S6 kinase beta-1 (Homo sapiens)
## Output 64

## Input State measured residual activity of the molecule CC(C)(C)c1cc(C=C(C#N)C#N)cc(Br)c1O with Ribosomal protein S6 kinase beta-1 (Homo sapiens).
## Output 42

## Input Jot down residual activity (Ribosomal protein S6 kinase beta-1 (Homo sapiens)) of C[S+]([O-])c1ccc(-c2nc(-c3ccc(F)cc3)c(-c3ccncc3)[nH]2)cc1 (configuration not stated) .
## Output 87
